- System: T1, human PAR-2 (human, UniProt P55085 26-397)
- T1 sequence: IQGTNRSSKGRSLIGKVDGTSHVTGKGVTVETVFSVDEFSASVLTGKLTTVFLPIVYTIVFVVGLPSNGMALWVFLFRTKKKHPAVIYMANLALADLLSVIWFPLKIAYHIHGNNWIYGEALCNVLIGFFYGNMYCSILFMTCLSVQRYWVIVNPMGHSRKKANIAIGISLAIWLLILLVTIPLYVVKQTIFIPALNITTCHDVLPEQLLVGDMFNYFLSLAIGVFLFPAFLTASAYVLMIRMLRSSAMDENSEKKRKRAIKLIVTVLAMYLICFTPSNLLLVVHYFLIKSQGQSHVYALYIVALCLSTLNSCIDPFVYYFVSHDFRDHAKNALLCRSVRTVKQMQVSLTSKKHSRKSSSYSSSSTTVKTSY
- Measurement Description: cell-based or functional assay
Observable: PAR-2 β-arrestin cell based assay IC50, 2 µM SLIGKV (nM)
Dear colleague, please return just the value in nM, with no unit written.

Binder	Unit Annotation	Data Value
P24E978 (antibody, human IgG4 S228P, kappa, V domains shown) VH: QVQLVQSGAEVKKPGSSVKVSCKASGFSLSSYAISWVRQAPGQGLEWMGVIWGNQNVYYAQKFQGRVTITADESTSTAYMELSSLRSEDTAVYYCARWKGYKDYPFDYWGQGTLVTVSS VL: EIVLTQSPATLSLSPGERATLSCRASQNVYKWLDWYQQKPGQAPRLLIYDAYSRATGIPARFSGSGSGRDFTLTISSLEPEDFAVYYCQQHHHGWTFGGGTKVEIKR	nM	0.94

Lab note: next binder to report on.
Lookup: For P24E1103 (antibody, human IgG4 S228P, kappa, V domains shown) VH: QVQLVQSGAEVKKPGSSVKVSCKASGFSLSSYAISWVRQAPGQGLEWMGVIWGNQNVYYAQKFQGRVTITADESTSTAYMELSSLRSEDTAVYYCARWKGYKDYPFDYWGQGTLVTVSS VL: EIVLTQSPATLSLSPGERATLSCRASQNVYKWLDWYQQKPGQAPRLLIYNANNRATGIPARFSGSGSGRDFTLTISSLEPEDFAVYYCQQHHSGWTFGGGTKVEIKR , what is its reported PAR-2 β-arrestin cell based assay IC50, 2 µM SLIGKV?
Found: 1.54
